// reported folding stability dG unfold per item
- TEST: folding stability dG unfold (combined trypsin and chymotrypsin); higher = more stable
// return numeric value only (unit: kcal/mol, not printed)

In the examples that follow, each entry is paired with its recorded folding stability dG unfold.
SAGGSAGGSAGGKIDRIQLHYNPGGNVYFRIYGPNGKPRYFMMPAEDLEDFPNAPIEIYPSAGGSAGGSAGG [r7_238_TrROS] :: 0.864
SAGGGHMMPNITVDVEEEVFTLPDGSILTRTTVTVTLPNGKKTTVETEYFYDTKTGTVSSKVVKVEASAGGS [r16_166_JUSTAS] :: 3.17
SAGGSAGGSAKKPPVYKIKIKVVNKKTKKEIEIEVEVKAGKTPEEIAKELAKKFGIEKVEIESAGGSAGGSA [r18_58_TrROS_Hall] :: 1.45
SMLEKIEKAIESGNDGILVPLKLTPEEFKKVRAYLEELGFTLLSEEELAVGPVPVYELTFKVNTKTGEAASA [r9_498_JUSTAS] :: 2.17
SAGGSATLPEKILEELAAAGYPLEYVTITEVKTEERPGSVVVTVKVEYKVPNSDRIETVNLTVPRPSAGGSA [r15_863_JUSTAS] :: 1.73
SAGGSAGGSMDLKDIKILEAYDPGGPVVVTFLNEGKPYTVTIPPENAQILLDLLKEGNIEIKPSAGGSAGGS [r12_604_TrMRF] :: 1.25
SAGGSAGGVERIKKLLEELGAEVVKVEKLENGKTLIYIKVKSEEQREALKALLPEEDIEIIEPESAGGSAGG [r6_83_TrROS_Hall] :: 4.43
SAGMTIELPNATVTLERVPVPATGESAWVVTVTARHPDGSTPTVVAVFPEDTPPEDVLAAALALAEELESAG [r5_704_TrMRF] :: 4.78
SAGGGMKTSKVSTSTTTTTVPGTGAPVTVEVTSTTTTFGPNGPAVVTTTSLTYDEAGTPTTTTTTTLSAGGS [r16_200_JUSTAS] :: -0.133
SAGGSAKKVVLLTIPPSANLPPNSKLVVKFPNGKEKTYKFNDKPVVILLVTDNNGNFSFGVSVEDKSAGGSA [r15_992_TrMRF] :: 2.68

Using the record for SAGGSAGGMREIEHEIPNPNGRNIKIKIEYDPDQGWHPVEIENPGNGKKKTYPFDSADEVLDQLSAGGSAGG [r6_465_TrROS] , report its folding stability dG unfold.
0.0475

Reported folding stability dG unfold, sequence SMVEKLPDGTTVIKGELPLDVSIEDVLAKLPDLKLASRTSETDPATGKRYYTFIVKPDGTVDVTSEPKLLSA [r9_238_JUSTAS] : ____
0.957

Query (sequence): SASPELRKLAEEAAERLVKELGVEKLEFTFTAPVLRPVYTYDPGGNKTPRLEEEIVTYSVTAVVPPEAASAG [r14_232_TrMRF] ; field requested: folding stability dG unfold
-0.0957
